Hello, the source for this data is PubChem BioAssay, in case you need it.

Would you kindly list inhibition of aggregation for each of these compounds?
Experimental protocol: reduction of polyQ htt aggregates in cells – imaging, exon1htt(103Q)mCFP cells, high-content imaging, primary screen (AID 483);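 also: compound exposure lasted 3 days before fixation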
Condition: exon1htt(103Q)mCFP cell line, aggregate imaging, at 2 µM; hits give high values
Give just the number in %; leave the unit off.

# get_value(readout='inhibition of aggregation', item= `CCCCNC(=O)c1c(N)n(CCCOC)c2nc3ccccc3nc12` )
16.7

Could you do the same for `CCN1CCN(C(=O)COc2cc(=O)n(CC)c3ccccc23)CC1` , please?
-14.7

Could you do the same for CCN1c2nc3ccccn3c(=O)c2CC2(C(=O)N(C)C(=O)N(C)C2=O)C1C (centres undefined) , please?
-17.6

Could you do the same for COC(=NC1CCCC1)C(O)c1c[nH]c2ccccc12 (centres undefined) , please?
14

Could you do the same for `C=CCn1c(O)c(C(C)=NCCCO)c(=O)[nH]c1=O` , please?
-3.2

Could you do the same for CSc1ccc(CNC2CN3CCC2CC3)cc1 (centres undefined) , please?
-0.6

Could you do the same for CC#CP(=O)(OCC)C(O)(c1ccccc1)C(F)(F)F (centres undefined) , please?
4.9

Could you do the same for c1ccc2c(c1)OCC(C1=NCCN1)O2 (centres undefined) , please?
2.2

Could you do the same for `O=C(Cn1c2c(c(-c3ccccc3Cl)cc1=O)CCC2)N1CCC2(CC1)OCCO2` , please?
-9

Could you do the same for `CCOC(=O)c1cc2c(cn1)[nH]c1ccccc12` , please?
2

Could you do the same for CCOC(=O)C1=C(N)OC(C)=C(C(=O)OCCOC)C12C(=O)Nc1ccccc12 (centres undefined) , please?
-0.2

Could you do the same for `O=C(Cn1ncc2c3ccccc3n(Cc3ccc(F)cc3)c2c1=O)N1CCC2(CC1)OCCO2` , please?
-17.5

Could you do the same for `CCOc1cccc(N2C(=O)CC(=O)NC2=O)c1` , please?
-8.7

Could you do the same for `N#Cc1ccccc1Cn1cc(C(=O)c2ccco2)c2ccccc21` , please?
23.1

Could you do the same for `Cc1[nH]c2c(Cl)cccc2c1CCN` , please?
1.5

Could you do the same for CC12CCCCC1=[N+]([O-])CN2O (centres undefined) , please?
-27.6

Could you do the same for `CCc1ccc(OCCCN=C(C)c2c(O)n(C)c(=O)n(C)c2=O)cc1` , please?
-0.8

Could you do the same for `CCn1c(C)c(C(=O)O)c2cc(OC)ccc21` , please?
1.8

Could you do the same for `CC(=O)[C@@]1(O)CC[C@H]2[C@@H]3CC=C4C[C@@H](O)CC[C@]4(C)[C@H]3CC[C@@]21C` , please?
4

Could you do the same for `CCN1CCN(Cc2cc(Br)cc(OC)c2O)CC1` , please?
20.4

Could you do the same for O=C1C2CCCN2C(c2ccc(Cl)c(Cl)c2)N1c1ccccn1 (centres undefined) , please?
0.2

Could you do the same for `CN(C)CCc1nc2ccccc2c(=O)n1-c1ccccc1` , please?
16.8

Could you do the same for `CC(=NCc1ccc2c(c1)OCO2)c1c(O)n(C)c(=O)n(C)c1=O` , please?
0.7

Could you do the same for `O=C(c1sc2ccccc2c1Cl)N1CCC2(CC1)OCCO2` , please?
-5.9
